test system: HepG2 cell line; assay: In vitro toxicity study on HepG2 cell line (resazurin, viability and IC50); type: cell-based, human; settings: HepG2 cells, 6.25 μM lipid, 48 h post-treatment, resazurin, relative to ethanol vehicle controls
property: Viability (%) at different lipid concentrations, mean
I'd appreciate it if you included the unit after the number.

Quick one: give me Viability (%) at different lipid concentrations, mean for each item below, same order please.
1. CCCCCCCC/C=C\CCCCCCCCOC(=O)C(C)(C)CC(OCCCCCCCC/C=C\CCCCCCCC)O[Si](C)(C)OCCCCCCN1CCOCC1 (stereo not shown)
2. CCCCC/C=C\C/C=C\CCCCCCCCOC(CCCCCCC/C=C\C/C=C\CCCCC)O[Si](C)(C)OCCCCCCN(CCCCO)CCCCO (stereo not shown)

Given back:
1: 97.0%; 2: 100.4%

Okay, here is my list. What is Viability (%) at different lipid concentrations, mean for each of these?
1. CCCCC/C=C\C/C=C\CCCCCCCCOC(CCCCCCC/C=C\C/C=C\CCCCC)O[Si](C)(C)OCCCCCCN1CCCCC1CO (stereo not shown)
2. CCCCC/C=C\C/C=C\CCCCCCCCOC(CCCCCCC/C=C\C/C=C\CCCCC)O[Si](C)(C)OCCCCCCN(CCCO)CCCO (stereo not shown)
3. CCCCCCCC/C=C\CCCCCCCCOC(CCCCCCC/C=C\CCCCCCCC)O[Si](C)(C)OCCCCCCN(CCO)CCO (stereo not shown)
4. CCCCC/C=C\C/C=C\CCCCCCCCO[Si](C)(C)OC(CCCCCCC/C=C\C/C=C\CCCCC)OCCCN(C)C (stereo not shown)
5. C#CCN(C)CCCCCCO[Si](C)(C)OC(CCCCCCC/C=C\C/C=C\CCCCC)OCCCCCCCC/C=C\C/C=C\CCCCC (stereo not shown)

Given back:
["99.5%", "100.6%", "104.8%", "98.8%", "100.2%"]

// data source = patent US20260109721A1
